molecular target: Bcl-2 (Homo sapiens, UniProt P10415)
Sequence (P10415 92-205 limits assumed): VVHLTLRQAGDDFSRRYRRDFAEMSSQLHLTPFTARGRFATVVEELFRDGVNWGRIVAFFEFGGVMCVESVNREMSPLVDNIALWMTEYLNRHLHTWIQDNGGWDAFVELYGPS
pIC50: −log10 of the molar value.
readout_name: pIC50

>>> result("CCCCCCCCCCCc1cc(Cc2ccccc2)c(O)c(O)c1O [TM-121]")
"≥ 6.00"
>>> result("CC(C)c1cccc(NC(=O)c2cc(CCc3ccccc3)c(O)c(O)c2O)c1 [TW-24]")
"< 6.00"
>>> result("CCCCCCCCCCCc1ccc(-c2cc(Cc3ccc(C(C)(C)C)cc3)c(O)c(O)c2O)cc1 [TW-8]")
"< 6.00"
>>> result("CC(C)(C)c1ccc(CCc2cc(C(=O)Nc3cccc(S(=O)(=O)c4ccccc4)c3)c(O)c(O)c2O)cc1 [TW-22]")
"< 6.00"
>>> result("O=C(Nc1ccc(S(=O)(=O)N2CCC(Nc3ccccc3-c3ccccc3)CC2)cc1)c1cc(S(=O)(=O)N2CCc3ccccc3C2)cc(O)c1O [TW-173]")
"< 6.00"
>>> result("NC(=O)[C@H](Cc1ccccc1)NS(=O)(=O)c1ccc2c(c1)CN(C(=O)c1cc(S(=O)(=O)N3CCc4ccccc4C3)c(O)c(O)c1O)CC2 [TM-199]")
"< 6.00"
>>> result("O=C(c1cc(S(=O)(=O)N2CCc3ccc(S(=O)(=O)N4CCCCC4)cc3C2)c(O)c(O)c1O)N1CCc2ccccc2C1 [TM-190]")
"≥ 6.00"
>>> result("COc1c(C(=O)C2N=C3C=CC=CC3S2)cc(C(=O)C2N=C3C=CC=CC3S2)c(O)c1O (centres unmarked) [TM-178]")
"< 6.00"

* * *

pIC50: −log10 of the molar value.
Reported pIC50 for target or system Bcl-2 (Homo sapiens, UniProt P10415), by entry.
readout_name: pIC50

>>> result("CC(C)(C)c1ccc(CCc2cc(C(=O)Nc3ccc(S(=O)(=O)c4ccccc4C(C)(C)C)cc3)c(O)c(O)c2O)cc1 [TW-38]")
"≥ 6.00"
>>> result("O=C(Nc1ccc(S(=O)(=O)N2CCN(c3ccccc3)CC2)cc1)c1cc(S(=O)(=O)N2CCc3ccccc3C2)cc(O)c1O [TW-163]")
"< 6.00"
>>> result("O=C(c1cc(S(=O)(=O)N2CCc3ccccc3C2)c(O)c(O)c1O)N1CCc2ccc(S(=O)(=O)NCCc3ccc(Cl)cc3)cc2C1 [TM-1209]")
"≥ 6.00"
>>> result("CCCCCCCCCCCc1cc(CC2CCCCC2)c(O)c(O)c1O [TM-129]")
"< 6.00"
>>> result("CN(CCc1ccccc1)S(=O)(=O)c1ccc2c(c1)CN(C(=O)c1cc(S(=O)(=O)N3CCc4ccccc4C3)c(O)c(O)c1O)CC2 [TM-1207]")
"≥ 6.00"
>>> result("CC(C)c1cc(CCc2ccc3ccccc3c2)c(O)c(O)c1O [TM-107]")
"< 6.00"
>>> result("O=C(c1cc(S(=O)(=O)N2CCc3ccccc3C2)c(O)c(O)c1O)N1CCc2ccc(S(=O)(=O)NCC(c3ccccc3)c3ccccc3)cc2C1 [TM-198]")
"< 6.00"

* * *

target: Bcl-2 (Homo sapiens, UniProt P10415); assay: Fluorescence polarization in vitro Bcl-2 binding assay
pIC50: −log10 of the molar value.
readout_name: pIC50

>>> result("O=C(Nc1ccc(S(=O)(=O)c2ccccc2)cc1)c1cc(Cc2ccccc2)c(O)c(O)c1O [TW-56]")
"< 6.00"
>>> result("CCCCCCCCCCCc1ccc(-c2cc(CCCc3ccccc3)c(O)c(O)c2O)cc1 [TW-6]")
"< 6.00"
>>> result("CC(C)(C)c1ccc(Cc2cc(C(=O)Nc3ccc(S(=O)(=O)c4ccccc4C(C)(C)C)cc3)c(O)c(O)c2O)cc1 [TW-41]")
"< 6.00"
>>> result("CN(CCCc1ccccc1)S(=O)(=O)c1cc(C(=O)N2CCc3ccc(S(=O)(=O)NCCc4ccccc4)cc3C2)c(O)c(O)c1O [TM-1206]")
"≥ 6.00"
>>> result("CCCCCCCCCCc1ccc(-c2cc(Cc3ccccc3)c(O)c(O)c2O)cc1 [TW-2, 5-Benzyl-4′-decyl-biphenyl-2,3,4-triol]")
"< 6.00"
>>> result("O=C(c1cc(S(=O)(=O)N2CCc3ccccc3C2)c(O)c(O)c1O)N1CCc2ccc(S(=O)(=O)N3CCC(Cc4ccccc4)CC3)cc2C1 [TM-1203]")
"≥ 6.00"
>>> result("O=C(c1cc(S(=O)(=O)N2CCc3ccccc3C2)c(O)c(O)c1O)N1CCc2ccc(S(=O)(=O)NCc3ccccc3)cc2C1 [TM-196]")
"< 6.00"

* * *

Quick record: IC50, Bcl-2 (Homo sapiens).
readout_name: IC50

>>> result("CC(C)(C)c1ccc(CCc2cc(O)c(O)c(C(=O)Nc3ccc(S(=O)(=O)N4CCC(Cc5ccccc5)CC4)cc3)c2)cc1")
"> 1000 nM"
>>> result("CC(C)(C)c1ccc(-c2cc(Cc3ccccc3)c(O)c(O)c2O)cc1")
"> 1000 nM"
>>> result("CCCCCCCCCCCc1ccc(-c2cc(Cc3ccc(C(C)C)cc3)c(O)c(O)c2O)cc1")
"> 1000 nM"
>>> result("CNC(=O)c1cc(Cc2ccccc2C(C)C)c(O)c(O)c1O")
"> 1000 nM"
>>> result("CC(C)c1ccccc1Cc1cc(C(=O)Nc2ccc(S(=O)(=O)c3ccccc3C(C)(C)C)cc2)c(O)c(O)c1O")
"≤ 1000 nM"
>>> result("O=C1C(c2ccc(C(=O)N3CCC(Cc4ccccc4)CC3)cc2)=Cc2c1c(O)c(O)c(O)c2-c1ccc(-c2ccccc2)cc1")
"≤ 1000 nM"
>>> result("CCCCCCCCCCc1ccc(-c2cc(C(C)C)c(O)c(O)c2O)cc1")
"> 1000 nM"
